molecular target: Protein kinase C beta type (Homo sapiens); settings: at 0.1 µM;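 also: measured against the PKC-beta2 splice variant, with values reported as mean percent inhibition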
Description: GSK_PKIS: PKC-beta2 (splice variant) mean inhibition at 0.1 uM [Nanosyn]
assay_metric: inhibition (%)

In [3]: df
Out[3]:
                          structure_notation                              assay_system  unit_of_measure  observed_measurement
 0  NC(=O)c1cccc(Nc2nccc(Nc3cccc4[nH]ncc34)n2)c1  Protein kinase C beta type (Homo sapiens)                %                 -1.01
 1    N#Cc1c(NC(=O)c2cccc3ccccc23)sc2c1CCCC2  Protein kinase C beta type (Homo sapiens)                %                  2.18
 2  CC(C)=Cc1cccc2c1/C(=N/Nc1ccc(S(N)(=O)=O)cc1)C(=O)N2  Protein kinase C beta type (Homo sapiens)                %                  0.32
 3  NS(=O)(=O)c1cccc(-c2ccc3c(NC(=O)C4CC4)n[nH]c3c2)c1  Protein kinase C beta type (Homo sapiens)                %                 -0.62
 4  Fc1cccc(COc2ccc(Nc3ncnc4sc(-c5cccs5)cc34)cc2Cl)c1  Protein kinase C beta type (Homo sapiens)                %                 -0.19
 5  COc1ccc(-c2nn3ncccc3c2-c2ccnc(Nc3ccc(Cl)c(C(F)(F)F)c3)n2)cc1  Protein kinase C beta type (Homo sapiens)                %                  0.91
 6  CCn1c(-c2nonc2N)nc2cncc(C(=O)N3CC[C@H](N)C3)c21  Protein kinase C beta type (Homo sapiens)                %                  11.4
 7  CCc1cccc(NC(=O)Nc2ccc(Oc3ccc4nc(NC(=O)OC)[nH]c4c3)cc2)c1  Protein kinase C beta type (Homo sapiens)                %                 -0.27
 8  COc1cccc(-n2ncc3c(N/N=C/c4cccc(F)c4)ncnc32)c1  Protein kinase C beta type (Homo sapiens)                %                   1.7
 9               COc1ccc(-c2ccncc2)cc1C(N)=O  Protein kinase C beta type (Homo sapiens)                %                  0.88
10  CCn1c(-c2nonc2N)nc2c(C#CC(C)(C)O)nc(OC[C@@H](N)c3ccccc3)cc21  Protein kinase C beta type (Homo sapiens)                %                  3.74
11   COc1ccc(COc2ccc(Cc3cnc(N)nc3N)cc2OC)cc1  Protein kinase C beta type (Homo sapiens)                %                     2
12  COc1cc2ncn(-c3cc(O[C@@H](C)c4ccccc4Cl)c(C(N)=O)s3)c2cc1OC  Protein kinase C beta type (Homo sapiens)                %                  1.99
13  Nc1ncnc2occ(-c3ccc(NC(=O)Nc4cccc(C(F)(F)F)c4)cc3)c12  Protein kinase C beta type (Homo sapiens)                %                  1.71
14  COc1cc2c(cc1Nc1nc(N3CCc4ccccc43)c3cc[nH]c3n1)N(C(=O)CN(C)C)CC2  Protein kinase C beta type (Homo sapiens)                %                  1.14
15  O=C1NC(=O)C(c2ccc(Cl)cc2)=C1Nc1ccc(Cl)c(C(=O)O)c1  Protein kinase C beta type (Homo sapiens)                %                 -0.73
16  NC(=O)c1ccc(-c2nc(-c3ccccn3)c(-c3ccc4c(c3)OCO4)[nH]2)cc1  Protein kinase C beta type (Homo sapiens)                %                  1.96
